target: Human GPR120 short form (Homo sapiens, UniProt Q5NUL3); construct: expressed in transfected cells; experiment: Human GPR120 calcium flux assay, Procedure Calcium B (4200 cells/well); format: cell-based
Sequence (Q5NUL3 whole entry): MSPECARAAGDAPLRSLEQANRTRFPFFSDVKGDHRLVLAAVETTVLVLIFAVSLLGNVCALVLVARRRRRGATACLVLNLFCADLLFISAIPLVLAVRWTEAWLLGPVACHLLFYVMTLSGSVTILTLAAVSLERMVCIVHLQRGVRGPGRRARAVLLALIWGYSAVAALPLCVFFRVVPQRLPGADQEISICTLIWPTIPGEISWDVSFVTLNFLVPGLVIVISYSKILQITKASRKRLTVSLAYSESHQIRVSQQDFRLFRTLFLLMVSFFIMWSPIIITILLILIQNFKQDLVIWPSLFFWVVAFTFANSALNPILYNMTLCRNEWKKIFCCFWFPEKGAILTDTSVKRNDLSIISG
pEC50: −log10 of the molar value.
reported.endpoint: pEC50

molecule="Cc1ccc(C2=C(COc3ccc(CCC(=O)O)c(C)c3C)CC(F)(F)CC2)cc1F [Compound 529]" lt_gt_eq== reported_value=6.81
molecule="O=C(O)CCc1ccc(OCC2=C(C3CCCC3)CCC2)cc1C(F)(F)F [Compound 398]" lt_gt_eq== reported_value=6.25
molecule="Cc1cc(CCC(=O)O)ccc1OCC1=C(c2ccc(Cl)cc2)CC(F)(F)C1 [Compound 166]" lt_gt_eq== reported_value=7.62
molecule="CC(C)CCC1=C(COc2ccc(CCC(=O)O)c(C(F)(F)F)c2)CCC1 [Compound 374]" lt_gt_eq== reported_value=5.85
molecule="CC(C)C1=C(COc2ccc(CCC(=O)O)c(Cl)c2)CCCC1 [Compound 587]" lt_gt_eq== reported_value=5.94
molecule="O=C(O)CCc1ccc(OCC2=C(c3ccc(Cl)cc3)CCC2)cc1F [Compound 47]" lt_gt_eq== reported_value=6.99
molecule="Cc1ccc(C2=C(COc3ccc(CCC(=O)O)cc3C)CCC2)cn1 [Compound 102]" lt_gt_eq== reported_value=6.87
molecule="Cc1ccc(C2=C(COc3ccc(CCC(=O)O)c(C(F)(F)F)c3)CCC2)cc1 [Compound 307]" lt_gt_eq== reported_value=6.54
molecule="N#CC1CC(COc2c(F)cc(CCC(=O)O)cc2F)=C(c2ccc(Cl)cc2)C1 (centres unmarked) [Compound 185]" lt_gt_eq== reported_value=6.44
molecule="Cc1ccc(F)c(C2=C(COc3ccc(CCC(=O)O)c(Cl)c3)CCC2)c1 [Compound 343]" lt_gt_eq== reported_value=5.86
molecule="CCCC1=C(COc2ccc(CCC(=O)O)cc2)CCCC1 [Compound 589]" lt_gt_eq== reported_value=5.50
molecule="O=C(O)CCc1ccc(OCC2=C(c3ccc(Cl)cc3)CC(F)C2)cc1Cl (centres unmarked) [Compound 252]" lt_gt_eq== reported_value=6.58
molecule="CC(C)C1=C(COc2ccc(CCC(=O)O)c(C(F)(F)F)c2)CCC1 [Compound 377]" lt_gt_eq== reported_value=6.31
molecule="Cc1cc(CCC(=O)O)ccc1OCC1=C(c2ccc(F)cc2)CCC(F)(F)C1 [Compound 498]" lt_gt_eq== reported_value=7.02
molecule="O=C(O)CCc1ccc(OCC2=C(Cc3ccccc3F)CCC2)cc1C(F)(F)F [Compound 404]" lt_gt_eq== reported_value=5.72
molecule="O=C(O)CCc1ccc(OCC2=C(c3ccc(Cl)cc3)CCC2)cc1 [Compound 153]" lt_gt_eq== reported_value=7.64
molecule="Cc1cc(OCC2=C(c3ccccc3)CCC2C)c(F)cc1CCC(=O)O (centres unmarked) [Compound 338]" lt_gt_eq== reported_value=6.14
molecule="Cc1c(CCC(=O)O)ccc(OCC2=C(c3ccc(I)cc3)CCCC2)c1C [Compound 476]" lt_gt_eq== reported_value=6.32
molecule="Cc1c(CCC(=O)O)ccc(OCC2=C(c3ccc(Cl)cc3)CCC2C(F)(F)F)c1C (centres unmarked) [Compound 12]" lt_gt_eq== reported_value=6.32
molecule="O=C(O)CCc1cc(F)c(OCC2=C(c3ccc(F)c(F)c3)CC(F)(F)C2)c(F)c1 [Compound 184]" lt_gt_eq== reported_value=7.04
molecule="Cc1cc(CCC(=O)O)ccc1OCC1=C(C2=CCOCC2)CCC1 [Compound 238]" lt_gt_eq== reported_value=6.36
molecule="Cc1c(CCC(=O)O)ccc(OCC2=C(CC3CCCC3)CCC2)c1C [Compound 427]" lt_gt_eq== reported_value=6.64
molecule="O=C(O)CCc1ccc(OCC2=C(c3ccccc3)CC(F)(F)C2)cc1Cl [Compound 242]" lt_gt_eq== reported_value=6.84
molecule="O=C(O)CCc1ccc(OCC2=C(c3ccc(Cl)cc3)CCC2)cc1OC(F)(F)F [Compound 96]" lt_gt_eq== reported_value=6.06
molecule="Cc1ccc(C2=C(COc3ccc(CCC(=O)O)cc3C)CCCC2)cn1 [Compound 477]" lt_gt_eq== reported_value=6.59
molecule="CCCc1ccc(C2=C(COc3ccc(CCC(=O)O)c(C)c3C)CCCC2)cc1 [Compound 463]" lt_gt_eq== reported_value=5.79
molecule="Cc1cc(CCC(=O)O)ccc1OCC1=C(c2cncs2)CC(F)(F)C1 [Compound 190]" lt_gt_eq== reported_value=6.35
molecule="Cc1c(CCC(=O)O)ccc(OCC2=C(c3ccc(Cl)cc3)CC(C#N)C2)c1C (centres unmarked) [Compound 196]" lt_gt_eq== reported_value=6.13
molecule="Cc1c(CCC(=O)O)ccc(OCC2=C(c3ccc(Cl)cc3)C(C(C)C)CC2)c1C (centres unmarked) [Compound 46]" lt_gt_eq=< reported_value=5.30
molecule="O=C(O)CCc1ccc(OCC2=C(C3C=CCC3)CCC2)cc1Cl (centres unmarked) [Compound 451]" lt_gt_eq== reported_value=6.60
molecule="Cc1ccc(C2=C(COc3ccc(CCC(=O)O)c(Cl)c3)CC(F)(F)C2)cc1 [Compound 250]" lt_gt_eq== reported_value=7.12
molecule="Cc1cc(CCC(=O)O)cc(F)c1OCC1=C(c2ccc(F)cc2)CC(F)(F)C1 [Compound 204]" lt_gt_eq== reported_value=6.90
molecule="O=C(O)CCc1ccc(OCC2=C(c3cccc(F)c3)CCC2)cc1Cl [Compound 297]" lt_gt_eq== reported_value=6.37
molecule="Cc1ccc(C2=C(COc3cc(C)c(CCC(=O)O)cc3F)CCC2)c(F)c1 [Compound 270]" lt_gt_eq== reported_value=6.72
molecule="Cc1cc(OCC2=C(c3ccc(Cl)cc3)CCCC2)ccc1CCC(=O)O [Compound 506]" lt_gt_eq== reported_value=6.74
